Listed here: items and their measured inhibition of growth at 0.063 ppm.
Tested on: Alternaria solani (ALTESO)
EXPERIMENT: microbe, parasite or virus in culture
Type: cell-based
REPORTED CONDITIONS: Alternaria solani, 168 h, read-out: Observed efficacy
Form entry: value (%) — number only.

>  <COMPOUND>
CO/C=C(/C(=O)OC)c1cccc(Br)c1CO/N=C(\COC)c1ccccc1

>  <inhibition of growth at 0.063 ppm, %>
36

$$$$
>  <COMPOUND>
CO/C=C(/C(=O)OC)c1cccc(Cl)c1CO/N=C(\COC)c1c(F)cc(F)cc1F

>  <inhibition of growth at 0.063 ppm, %>
3

$$$$
>  <COMPOUND>
CO/C=C(/C(=O)OC)c1cccc(F)c1CO/N=C(\COC)c1c(F)cc(F)cc1F

>  <inhibition of growth at 0.063 ppm, %>
0

$$$$
>  <COMPOUND>
CO/C=C(/C(=O)OC)c1cccc(C)c1CO/N=C(\COC)c1ccc(F)cc1F

>  <inhibition of growth at 0.063 ppm, %>
32

$$$$
>  <COMPOUND>
CO/C=C(/C(=O)OC)c1cccc(Cl)c1CO/N=C(\COC)c1ccc(F)cc1F

>  <inhibition of growth at 0.063 ppm, %>
18

$$$$
>  <COMPOUND>
CO/C=C(/C(=O)OC)c1cccc(C)c1CO/N=C(\COC)c1ccccc1

>  <inhibition of growth at 0.063 ppm, %>
59

$$$$
>  <COMPOUND>
CO/C=C(/C(=O)OC)c1cccc(Cl)c1CO/N=C(\COC)c1ccccc1

>  <inhibition of growth at 0.063 ppm, %>
29

$$$$
>  <COMPOUND>
CO/C=C(/C(=O)OC)c1cccc(C)c1CO/N=C(\COC)c1ccc(F)cc1

>  <inhibition of growth at 0.063 ppm, %>
50

$$$$

GET /value?item= `CO/C=C(/C(=O)OC)c1cccc(Br)c1CO/N=C(\COC)c1c(F)cc(F)cc1F` &field=inhibition of growth at 0.063 ppm returns 0

get_value(item= N#Cc1c[nH]cc1-c1cccc2c1OC(F)(F)O2 [fludioxonil, reference compound] , readout=inhibition of growth at 0.063 ppm) returns 29

// inhibition of growth at 0.063 ppm lookup, compound = `CO/C=C(/C(=O)OC)c1cccc(C)c1CO/N=C(\COC)c1c(F)cc(F)cc1F` , result: 0

Values compiled from patent EP4640052A1.
